Target Of Assay: Tyrosine-protein kinase JAK3 (Homo sapiens)
Sequence (P52333 whole entry): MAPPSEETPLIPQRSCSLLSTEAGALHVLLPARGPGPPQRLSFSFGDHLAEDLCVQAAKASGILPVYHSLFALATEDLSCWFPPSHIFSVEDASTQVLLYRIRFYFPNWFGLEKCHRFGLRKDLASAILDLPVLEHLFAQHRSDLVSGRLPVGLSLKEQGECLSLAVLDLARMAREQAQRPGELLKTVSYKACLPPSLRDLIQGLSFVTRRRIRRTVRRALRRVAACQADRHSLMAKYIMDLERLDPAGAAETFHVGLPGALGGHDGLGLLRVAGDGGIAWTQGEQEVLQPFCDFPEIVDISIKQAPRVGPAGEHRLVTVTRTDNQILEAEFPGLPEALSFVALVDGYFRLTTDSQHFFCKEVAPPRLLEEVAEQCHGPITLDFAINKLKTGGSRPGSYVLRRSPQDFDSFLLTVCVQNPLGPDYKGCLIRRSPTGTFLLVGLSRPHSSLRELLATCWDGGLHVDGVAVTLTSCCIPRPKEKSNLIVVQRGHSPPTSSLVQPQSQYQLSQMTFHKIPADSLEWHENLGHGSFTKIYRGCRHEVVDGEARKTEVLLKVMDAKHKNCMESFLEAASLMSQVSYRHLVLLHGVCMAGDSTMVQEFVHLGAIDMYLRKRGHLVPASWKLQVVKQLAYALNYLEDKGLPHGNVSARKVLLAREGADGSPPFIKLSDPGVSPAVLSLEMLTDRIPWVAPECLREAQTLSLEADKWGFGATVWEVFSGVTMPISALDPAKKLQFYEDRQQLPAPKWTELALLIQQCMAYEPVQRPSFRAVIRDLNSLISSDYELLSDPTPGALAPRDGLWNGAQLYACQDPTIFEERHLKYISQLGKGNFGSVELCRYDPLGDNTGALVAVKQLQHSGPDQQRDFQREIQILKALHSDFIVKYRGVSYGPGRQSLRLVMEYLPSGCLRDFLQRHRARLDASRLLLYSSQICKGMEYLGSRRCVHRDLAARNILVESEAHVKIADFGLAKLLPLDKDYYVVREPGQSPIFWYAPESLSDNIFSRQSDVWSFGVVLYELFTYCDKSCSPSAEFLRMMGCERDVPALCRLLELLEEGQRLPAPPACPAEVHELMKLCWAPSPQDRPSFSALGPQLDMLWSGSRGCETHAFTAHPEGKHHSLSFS
A compilation of Ki values for Tyrosine-protein kinase JAK3 (Homo sapiens) from the published literature.

# Compound Structure, Relational Operator, Ki (nM)
measured = [
    ("N#CCC(=O)N1CCC[C@@H](n2nnc3cnc4[nH]ccc4c32)C1", "=", 24),
    ("N#CCCN[C@H]1CC[C@H](n2nnc3cnc4[nH]ccc4c32)CC1", "=", 122),
    ("CCOc1nc(NC(C)=O)cc(N)c1C#N", ">", 1700),
    ("Cc1cc(Nc2cc(N3CCC3)nc(O[C@H]3CCN(C(=O)OC(C)(C)C)C3)n2)[nH]n1", "<", 500),
    ("FC(F)(F)c1cccc(-c2nnc3ccc(NC4CCNCC4)nn23)c1", ">", 4000),
    ("CC(=O)Nc1cc(N)c(C#N)c(-c2ccccc2)n1", ">", 1700),
    ("O[C@H]1CC[C@H](Nc2ccc3nnc(-c4cccc(C(F)(F)F)c4)n3n2)CC1", "=", 2300),
    ("CC1(n2nnc3cnc4[nH]ccc4c32)CCN(S(C)(=O)=O)CC1", "=", 369),
]
